- Tested on: RSL lectin (fucose binding lectin RSL) (Ralstonia pseudosolanacearum)
- Experiment description: biochemical
Quantity name: Kd (nM)
API: value field is a number in nM; no unit string.

Look up Kd of CO[C@@H]1O[C@@H](C)[C@@H](O)[C@@H](O)[C@@H]1O [α-L-Me-fucoside] and report it.
600
